List of pKi values.
Target chain: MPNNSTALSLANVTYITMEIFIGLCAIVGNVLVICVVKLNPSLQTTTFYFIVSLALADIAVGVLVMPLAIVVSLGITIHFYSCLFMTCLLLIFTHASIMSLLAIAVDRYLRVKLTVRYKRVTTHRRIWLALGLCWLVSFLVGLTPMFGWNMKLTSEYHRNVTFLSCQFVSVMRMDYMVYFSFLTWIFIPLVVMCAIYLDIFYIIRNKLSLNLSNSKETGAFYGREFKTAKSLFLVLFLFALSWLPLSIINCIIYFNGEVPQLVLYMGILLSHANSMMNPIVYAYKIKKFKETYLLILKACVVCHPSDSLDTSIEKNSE
As a rule, pKi stands for the negative log10 of the concentration, concentration in M.

Which pKi value belongs to CCn1cc2c(nc(NC(=O)Cc3ccsc3)n3nc(-c4ccco4)nc23)n1 ?
6.12

Fill in the blank: the reported pKi of CCCCn1cc2c(nc(NC(=O)Cc3ccsc3)n3nc(-c4ccco4)nc23)n1 is ____.
6.72

Any idea what its pKi is? The molecule is O=C(Cc1ccc(Cl)cc1)Nc1nc2nn(CCCc3ccccc3)cc2c2nc(-c3ccco3)nn12
7.52

Fill in: pKi of O=C(COc1ccc(Cl)cc1)Nc1nc2nn(CCCc3ccccc3)cc2c2nc(-c3ccco3)nn12 is ___
6.40

In the following, a different molecule is considered.
If you can, please state the reported pKi value of CCCCn1cc2c(nc(NC(=O)Cc3ccc4ccccc4c3)n3nc(-c4ccco4)nc23)n1 .
6.76

----------
UniProt P0DMS8 Ki data

Notebook entry, UniProt P0DMS8 assay: Ki of CSc1c2c(nc(NC(=O)Cc3ccc(OCC(C)C)cc3)n3nc(-c4ccco4)nc23)nn1C = ?
> 1 µM

Form field: Ki recorded for Nc1nc2c(cnn2CCCc2ccc3c(c2S(=O)(=O)O)OCO3)c2nc(-c3ccco3)nn12 with UniProt P0DMS8 (enter value)
> 10 µM

Short answer please: Ki, UniProt P0DMS8, entry O=C(Cc1ccccc1)Nc1nc2nn(CCc3ccccc3)cc2c2nc(-c3ccco3)nn12
0.00549 µM

Please state recorded Ki (tested on UniProt P0DMS8) of COc1ccc(CC(=O)Nc2nc3nn(C)cc3c3nc(-c4ccco4)nn23)cc1
0.00095 µM

Let us move to another entry and its Ki.
Item O=C(Cc1cccc(Cl)c1)Nc1nc2nn(CCc3ccccc3)cc2c2nc(-c3ccco3)nn12 with UniProt P0DMS8 - Ki?
0.273 µM

// provenance: ChEMBL document CHEMBL1154073
